ASSAYED SYSTEM: T1, human CD73 (huCD73) protein, antigen of the Biacore assay (human, UniProt P21589 27-547, limits assumed)
T1 construct: also called human CD73 antigen
T1 sequence (looked up): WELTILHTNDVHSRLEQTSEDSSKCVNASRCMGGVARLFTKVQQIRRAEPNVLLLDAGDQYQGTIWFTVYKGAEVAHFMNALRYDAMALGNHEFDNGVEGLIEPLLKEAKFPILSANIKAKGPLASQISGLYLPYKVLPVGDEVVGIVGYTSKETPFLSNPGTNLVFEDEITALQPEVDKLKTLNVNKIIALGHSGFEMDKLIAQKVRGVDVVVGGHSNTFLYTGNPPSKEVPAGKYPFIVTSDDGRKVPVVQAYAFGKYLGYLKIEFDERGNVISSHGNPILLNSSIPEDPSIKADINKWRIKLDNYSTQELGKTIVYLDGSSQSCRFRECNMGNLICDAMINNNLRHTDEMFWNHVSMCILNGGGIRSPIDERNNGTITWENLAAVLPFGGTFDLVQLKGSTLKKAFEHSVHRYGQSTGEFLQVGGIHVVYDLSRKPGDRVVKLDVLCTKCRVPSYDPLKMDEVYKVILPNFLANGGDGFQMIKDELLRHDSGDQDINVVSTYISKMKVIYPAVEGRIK
METHOD NOTES: SPR Biacore T200; antibody captured on Protein A chip, CD73 in flow; 1:1 Langmuir
ENDPOINT LABEL: kon (M⁻¹ s⁻¹)
The reply should be a number in M⁻¹ s⁻¹, with the unit left off.

Example entries begin here.
>>> value("Hab127.41 (antibody, V domains shown, VL4 + VH1; recombined with human heavy and light constant regions) VH: EVQLVQSGAEVKKPGASVKVSCKASGYTFTAYFMNWVRQAPGQGLEWMGRIYHNNGDTFYSQKFKGRVTMTVDKSTSTVYMELSSLRSEDTAVYYCATSYVGDWGQGTTVTVSS VL: DIQMTQSPSSLSASVGDRVTITCRASQDIGDSLNWLQQKPGGALKRLIYATSSLDSGVPSRFSGSGSGSDYTLTISSLQPEDFATYYCLQYASFPWTFGGGTKVEIK")
230000
>>> value("Hab108.64 (antibody, human IgG1, kappa, V domains shown, also called humanized antibody of mab108) VH: EVTLKQSGPGLVKPTETLTLTCTVSGFSLSSYGIQWVRQPPGKGLEWLGVIWSGGSADYNAAFISRLTISKDTSKSQVVLTMTNMDPVDTATYYCAGQYGSVWGQGTLVTVSS VL: DIQMTQSPSSLSASVGDRVTITCRASQDIGDRLNWLQQKPGGAIKRLIYATSSLDSGVPKRFSGSGSGTEYTLTISSLQPEDFATYYCLQYAGSWTFGGGTKVEIKR")
224000
>>> value("Hab108.35 (antibody, V domains shown, VL3 + VH5; full-length antibody) VH: EVTLKESGPVLVKPTETLTLTCTVSGFSLKSYGIQWVRQPPGKLLEWLGVIWSGGSADYNAAFISRLTISKDTSKSQVVLTMTNMDPVDTATYYCAGQYGSVWGQGTLVTVSS VL: DIQMTQSPSSLSASVGDRVTITCRASQDIGDRLNWLQQKPGGAIKRLIYATSSLDSGVPSRFSGSGSGTEYTLTISSLQPEDFATYYCLQYAGSWTFGGGTKVEIK")
290000

Supply kon value. Item: Hab127.31f (antibody, V domains shown, VL3 + VH1f, HCDR2 hot-spot variant; full-length antibody) VH: EVQLVQSGAEVKKPGASVKVSCKASGYTFTAYFMNWVRQAPGQGLEWMGRIYHNHGDTFYSQKFKGRVTMTVDKSTSTVYMELSSLRSEDTAVYYCATSYVGDWGQGTTVTVSS VL: DIQMTQSPSSLSASVGDRVTITCRASQDIGDSLNWLQQKPGGALKRLIYATSSLDSGVPSRFSGSGSGTEYTLTISSLQPEDFATYYCLQYASFPWTFGGGTKVEIK
224000

Note kon for the binder shown: Hab127.31a (antibody, V domains shown, VL3 + VH1a, HCDR2 hot-spot variant; full-length antibody) VH: EVQLVQSGAEVKKPGASVKVSCKASGYTFTAYFMNWVRQAPGQGLEWMGRIYHNQGDTFYSQKFKGRVTMTVDKSTSTVYMELSSLRSEDTAVYYCATSYVGDWGQGTTVTVSS VL: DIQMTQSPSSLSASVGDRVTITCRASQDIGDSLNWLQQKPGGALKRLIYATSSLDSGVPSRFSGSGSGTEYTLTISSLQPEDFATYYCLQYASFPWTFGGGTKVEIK
219000
